System: Calu-3
test-protocol: cell viability relative to DMSO; higher = less toxic
test-parameters: 72 h; 10000 nM
Structures can show the parent of a compound that is named as a salt.
assay-metric: cell viability (%)
Enter your answer as a number in %; do not include the unit.

State its cell viability for this molecule: Cc1cccc(Cc2c[nH]cn2)c1C
102

State its cell viability for this molecule: CC(C)Oc1ccc2c(=O)c3cc(C(=O)O)ccc3oc2c1
104

State its cell viability for this molecule: CC[C@@H](c1cccc(O)c1)[C@@H](C)CN(C)C [Tapentadol (hydrochloride)]
92.5

State its cell viability for this molecule: Oc1nc(O)c2cn[nH]c2n1
94.6

State its cell viability for this molecule: CC(=O)Nc1ccc(OCC(O)CNC(C)C)cc1 (stereo unspecified)
99.7

State its cell viability for this molecule: C[C@](N)(Cc1ccc(O)cc1)C(=O)O
99.5

State its cell viability for this molecule: COc1ccc2[nH]cc(C3=CCNCC3)c2c1
101

State its cell viability for this molecule: C1CCC(NC2CCCCC2)CC1
98

State its cell viability for this molecule: Cc1cccc(-c2[nH]c(C(C)(C)C)nc2-c2ccc3c(c2)OCO3)n1
70.3

State its cell viability for this molecule: CCOC(=O)Nc1ccc2c(c1)N(C(=O)CN(CC)CC)c1ccccc1CC2
107

State its cell viability for this molecule: OC[C@@H](O)[C@@H](O)[C@H](O)[C@@H](O)CO
101

meta.source: the supplement of paper PMC13380429
